# Test system: Trypanosoma cruzi
# method-description: Trypanosoma cruzi phosphomannomutase and mannose-1-phosphate guanylyltransferase assay
# Format: functional
# Design: scale not given: direction of the effect not stated beside the values
# test-parameters: 10 µM
metric-name: Percent Effect (%)
Write it as a number; the unit % goes unstated.

{"columns": ["molecule", "value-reported"],
 "data": [
  ["COc1ccc(CNC2CCCN(Cc3noc(C)n3)C2)cc1F (centres undefined)", -5.06],
  ["CC(C)c1cc(NCC(O)c2ccc(F)cc2)n2nccc2n1 (centres undefined)", 1.35],
  ["CN(CC(F)(F)F)C(=O)C1CSCN1C(=O)OC(C)(C)C (centres undefined)", -3.33],
  ["Cc1cc(C)n(C2CCCN(C(=O)Cc3csc(C)n3)C2)n1 (centres undefined)", 6.7],
  ["CN(Cc1ccsc1)C(=O)CN1CCOC(Cn2cccn2)C1 (centres undefined)", -1.49]
]}

Per the record, CC(C)c1nc(C2CCCN(Cc3nnc(C4CC4)o3)C2)no1 (centres undefined) has Percent Effect of 0

For Cc1cnn(CC2CCCN2CCc2nc3ccccc3c(=O)[nH]2)c1 (centres undefined) the molecule record lists Percent Effect as 6.89

Form field Percent Effect, entry Cc1cc(N2CCN(Cc3ccccc3)CC(O)C2)cc(C)n1 (centres undefined) : -1.74

Lab note: measured Percent Effect of C1CC(CN2CCO[C@H]3[C@H](OCC4CC4)CC[C@@H]32)CCO1 was -2.93

Looking up Cc1ccc(C(=O)NCCS(C)(=O)=O)c(=O)[nH]1 , I found its Percent Effect recorded as 4.88

# Percent Effect of CN(C)c1ccccc1C(=O)N1C[C@@H](CN2CCOCC2)[C@@H](CO)C1 = 6.69

response.value for COCCCNc1nccc(-c2c[nH][nH]c2=O)n1 (field: Percent Effect) = -6.63

Cc1cccc(CNC(=O)CNc2cc(CO)ccc2Cl)c1 yielded Percent Effect of -1.27

Input COCC(=O)N1CCC2(CCN(Cc3ccccn3)CC2)CC1 . Output Percent Effect: 4.77

// Percent Effect value for CC(CCc1ccccc1)NC(=O)Nc1cnn(CC(N)=O)c1 (centres undefined) : -1.74

Lab book: Percent Effect of O=C(O)c1ccc(S(=O)(=O)Nc2ccc(Cl)c(F)c2)c(F)c1 noted as 1.04

O=C(CCc1ccccc1)N1CCn2cc(CN3CCCC3)nc2C1 has a reported Percent Effect of -1.08

Entry N#CC1(C(=O)N2CCN(Cc3cscn3)CC2)CCCC1 — recorded Percent Effect = -8.78

====

# assayed-target: Arginase-2, mitochondrial (Homo sapiens) (UniProt P78540)
# Sequence (P78540 whole entry): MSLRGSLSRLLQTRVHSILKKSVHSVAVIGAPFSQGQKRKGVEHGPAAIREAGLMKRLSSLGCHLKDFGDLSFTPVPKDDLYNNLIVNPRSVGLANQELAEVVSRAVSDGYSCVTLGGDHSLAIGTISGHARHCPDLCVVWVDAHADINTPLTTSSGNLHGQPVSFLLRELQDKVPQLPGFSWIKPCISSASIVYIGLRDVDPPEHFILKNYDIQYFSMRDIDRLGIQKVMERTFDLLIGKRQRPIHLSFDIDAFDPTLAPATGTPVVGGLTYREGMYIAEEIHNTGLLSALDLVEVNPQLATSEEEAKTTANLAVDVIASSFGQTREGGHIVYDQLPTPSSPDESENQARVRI
# method-description: in vitro enzyme assay to detect the production of urea directly proportional to the activity of Arginase II; note: in the data most compounds retested in dose-response had high values
# Assay type: functional
# Set-up: scale not given: direction of the effect not stated beside the values
# test-parameters: 33.3 µM
metric-name: Percent Effect (%)
Write the number in % without appending the unit.

// known answers, use as guide
{"columns": ["molecule", "metric-name", "value-reported"],
 "data": [
  ["CCc1nnc2n1CCN(CC(=O)Nc1cc(C(C)(C)C)nn1C)C2", "Percent Effect", 4.6],
  ["O=C(Cc1ccccn1)N1CCc2nc(-c3cnccn3)nc(O)c2C1", "Percent Effect", 3.48],
  ["Cc1occc1C(=O)N1CCC2(CCC2NC(=O)c2ccn(C)c2)CC1 (stereo unspecified)", "Percent Effect", -3.5],
  ["C=Cc1ccc(C(=O)N2CCCC(Nc3ccc(F)cc3)C2)cc1 (stereo unspecified)", "Percent Effect", 0.952],
  ["O=C1N(Cc2ccc(F)c(F)c2)CCCC12CCN(C1CCSCC1)C2 (stereo unspecified)", "Percent Effect", 23.4],
  ["COCCc1noc(CNCC2CCCN2c2cccnn2)n1 (stereo unspecified)", "Percent Effect", -5.68],
  ["O=C(CCn1cccn1)N1C[C@@H]2CC[C@H](C1)N(Cc1ccccn1)C2=O", "Percent Effect", 0.476],
  ["O=C1CC2(CCCCN2C(=O)c2ccsc2)CN1CC1CC1 (stereo unspecified)", "Percent Effect", 4.57]
]}

# O=C1CCC2(CCN(Cc3nccs3)CC2)N1Cc1ccccc1 with Arginase-2, mitochondrial (Homo sapiens) (UniProt P78540): Percent Effect is 3.03

Percent Effect on Arginase-2, mitochondrial (Homo sapiens) (UniProt P78540) for Cc1cnc(Nc2nccnc2C2CCN(C)CC2)s1 is 0.699

Reported Arginase-2, mitochondrial (Homo sapiens) (UniProt P78540) Percent Effect for item Cc1cccn2cc(CC(=O)N3CCCC(n4cncn4)C3)nc12 (stereo unspecified) was 5.74

====

Percent Effect by entry:
# assayed-target: Sialic acid-binding Ig-like lectin 9 (Homo sapiens) (UniProt Q9Y336)
# Sequence (Q9Y336 whole entry): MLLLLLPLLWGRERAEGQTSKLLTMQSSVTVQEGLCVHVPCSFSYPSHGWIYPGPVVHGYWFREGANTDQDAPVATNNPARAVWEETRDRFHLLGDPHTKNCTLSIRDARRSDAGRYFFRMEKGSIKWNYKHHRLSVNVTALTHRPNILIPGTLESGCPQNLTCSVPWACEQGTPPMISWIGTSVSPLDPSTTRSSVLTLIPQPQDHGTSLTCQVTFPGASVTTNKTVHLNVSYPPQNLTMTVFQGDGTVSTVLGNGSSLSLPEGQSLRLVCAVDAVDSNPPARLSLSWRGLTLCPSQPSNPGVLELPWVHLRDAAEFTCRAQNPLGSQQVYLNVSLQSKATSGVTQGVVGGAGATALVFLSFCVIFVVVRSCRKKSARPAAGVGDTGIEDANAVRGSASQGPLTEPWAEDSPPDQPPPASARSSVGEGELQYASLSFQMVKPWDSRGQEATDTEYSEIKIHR
# method-description: Hs-Siglec9 ALPHAscreen SOP 20170721
# Set-up: scale not given: direction of the effect not stated beside the values
# test-parameters: 10 µM
Entry rule: numbers only, all in %.

{"columns": ["molecule", "unit-abbrev", "value-reported"],
 "data": [
  ["CCc1c(C)nn(CCNC(=O)C2CCCN(C(=O)N(C)C)C2)c1C (centres undefined)", "%", 6.18],
  ["Cc1ncc(CNC(=O)Cc2ccc(Cl)cc2)c(C2CCCN2C)n1 (centres undefined)", "%", 5],
  ["COc1cn(-c2ccccc2)nc1C(=O)NCCCN1CCCC(C)C1 (centres undefined)", "%", 18]
]}

# molecule O=C(CCn1cccn1)N1CCN(CC(F)F)CC1 ; its Percent Effect = -4.78

Memo: CN(C)C(=O)CN1C(=O)CCC12CCN(Cc1cccn1C)CC2 , reported Percent Effect: 0.456

Notebook: CN(C)c1cc(C(=O)N2CCN(S(C)(=O)=O)CC2)ccn1 , Percent Effect read as -9.31

# Percent Effect of O=c1c(-c2ccnc(NC3CCOCC3)n2)cnc2sc(Cl)cn12 = -4.95

Measured Percent Effect of CN1[C@H](CN2CCCC2)C[C@@H]2CN(C(=O)Cc3cccs3)CC[C@@H]21 : -1.33

Measured Percent Effect of Cc1ncsc1-c1nnc(C2CCN(CC3CCCCC3)CC2)o1 : -11.6

Entry CNC(=O)c1cccc(C2CNCCN2C(C)=O)c1 (centres undefined) — recorded Percent Effect = -6.16

What the record says about c1ccc2cc(OCCN3CCn4c(nnc4C4CC4)C3)ccc2c1 : Percent Effect is -1.64

====

# assayed-target: Chromo domain-containing protein 1 (Saccharomyces cerevisiae (strain ATCC 204508 / S288c) (Baker's yeast)) (UniProt P32657)
# Sequence (P32657 whole entry, the tested form may be a part): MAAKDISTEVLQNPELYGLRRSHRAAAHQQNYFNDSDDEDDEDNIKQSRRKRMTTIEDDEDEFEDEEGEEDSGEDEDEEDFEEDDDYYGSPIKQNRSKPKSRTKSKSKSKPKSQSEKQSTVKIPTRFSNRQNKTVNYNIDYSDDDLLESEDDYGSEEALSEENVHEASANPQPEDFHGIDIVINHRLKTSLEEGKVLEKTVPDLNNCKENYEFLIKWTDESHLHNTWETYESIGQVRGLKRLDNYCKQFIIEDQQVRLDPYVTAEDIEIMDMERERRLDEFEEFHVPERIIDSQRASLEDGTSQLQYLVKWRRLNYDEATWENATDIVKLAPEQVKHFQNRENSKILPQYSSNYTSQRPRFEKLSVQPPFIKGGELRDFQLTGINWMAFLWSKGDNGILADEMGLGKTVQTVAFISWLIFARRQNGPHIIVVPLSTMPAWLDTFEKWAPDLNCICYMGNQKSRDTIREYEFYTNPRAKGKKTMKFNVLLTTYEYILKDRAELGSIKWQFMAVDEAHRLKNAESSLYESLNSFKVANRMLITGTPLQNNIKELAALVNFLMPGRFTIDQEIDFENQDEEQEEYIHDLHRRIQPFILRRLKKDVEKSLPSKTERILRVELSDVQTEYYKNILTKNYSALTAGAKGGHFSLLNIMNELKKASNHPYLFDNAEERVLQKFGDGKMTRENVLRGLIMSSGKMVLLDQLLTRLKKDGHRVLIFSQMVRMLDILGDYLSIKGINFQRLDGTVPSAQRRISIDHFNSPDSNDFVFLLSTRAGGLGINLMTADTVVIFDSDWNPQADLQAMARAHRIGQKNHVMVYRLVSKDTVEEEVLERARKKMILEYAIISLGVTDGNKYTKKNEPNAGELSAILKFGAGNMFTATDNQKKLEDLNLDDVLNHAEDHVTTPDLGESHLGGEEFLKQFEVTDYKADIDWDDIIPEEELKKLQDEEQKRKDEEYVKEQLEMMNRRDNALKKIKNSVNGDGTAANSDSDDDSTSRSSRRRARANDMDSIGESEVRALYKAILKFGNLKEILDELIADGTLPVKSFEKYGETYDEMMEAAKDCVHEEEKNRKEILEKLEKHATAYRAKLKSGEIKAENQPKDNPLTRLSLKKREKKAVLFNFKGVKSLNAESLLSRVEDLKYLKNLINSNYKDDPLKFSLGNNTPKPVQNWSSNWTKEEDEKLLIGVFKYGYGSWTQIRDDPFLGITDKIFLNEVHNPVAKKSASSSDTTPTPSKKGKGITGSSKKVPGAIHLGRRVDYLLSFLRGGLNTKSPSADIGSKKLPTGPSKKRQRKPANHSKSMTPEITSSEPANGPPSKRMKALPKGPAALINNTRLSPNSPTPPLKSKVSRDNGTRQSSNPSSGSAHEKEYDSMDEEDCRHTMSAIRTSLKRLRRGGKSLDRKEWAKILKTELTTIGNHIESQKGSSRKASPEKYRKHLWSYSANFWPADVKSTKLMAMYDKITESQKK
# method-description: ScCHD-1 Enzyme Inhibition Assay; note: in the data most compounds retested in dose-response had high values
# Assay type: functional
# Parameters: scale not given: direction of the effect not stated beside the values
# test-parameters: 30 µM
We begin with a simple list: items and their reported Percent Effect.
A number alone suffices; assume %.

{"columns": ["compound", "unit-abbrev", "Percent Effect"],
 "data": [
  ["Cc1ccc(-c2nc(CN3CCn4c(nnc4C4CC4)C3)cs2)o1", "%", -4.37],
  ["CCO[C@@H]1CCN(C(=O)c2cscn2)[C@@H]1Cc1cnn(C)c1", "%", 1.69],
  ["CCS(=O)(=O)N1CCC[C@]2(C(=O)N(C)C)CN(c3ncccn3)C[C@@H]2C1", "%", -10.2],
  ["COc1cccc(C(=O)NCCCN2CCc3ccccc3C2)c1OC", "%", -4.32]
]}

The compound listed as Cc1ccsc1CN(Cc1ccccn1)CC(C)C shows Percent Effect equal to -1.62

So for CN(Cc1cnn(-c2ccccc2)n1)CC1CCCN1c1cccnn1 (stereo unspecified) , the logged Percent Effect turned out to be 1.47

====

# assayed-target: Protein translocase subunit SecA (Escherichia coli (strain K12))
# method-description: Assay to Identify E. coli SecA ATPase Inhibitors
# Type: functional
# Set-up: scale not given: direction of the effect not stated beside the values
# test-parameters: 30 µM
Entries with a potency or affinity are not part of this list.
The following molecules are listed with their measured Percent Effect values.
Note: unit % is implicit; provide only the numeric part.

Look over these answered cases.
{"columns": ["molecule", "assayed-target", "Percent Effect / %"],
 "data": [
  ["CCc1nc(C2CCCN2C(=O)CCc2cccs2)no1 (centres undefined)", "Protein translocase subunit SecA (Escherichia coli (strain K12))", -3.51],
  ["Cc1cccc(CS(=O)(=O)CC(=O)NCCCOC(C)C)c1", "Protein translocase subunit SecA (Escherichia coli (strain K12))", -4.74],
  ["O=C(CN1CCc2cncnc2C1)NCCOc1ccccc1", "Protein translocase subunit SecA (Escherichia coli (strain K12))", -4.25],
  ["Cn1cnc2c1C(COCC1CC1)CN(C(=O)Cc1ccsc1)C2 (centres undefined)", "Protein translocase subunit SecA (Escherichia coli (strain K12))", -4.47],
  ["CCC1CN(C(=O)c2ccc(=O)[nH]c2)CCC(=O)N1Cc1ccccc1 (centres undefined)", "Protein translocase subunit SecA (Escherichia coli (strain K12))", -1.75]
]}

Form field, Percent Effect with Protein translocase subunit SecA (Escherichia coli (strain K12)), item Cc1nc(CN2CCCN(CCOc3cccc(C#N)c3)CC2)no1 : -0.969

The molecule Cc1cc(C)c(OCC(=O)NS(=O)(=O)c2cccnc2)c(C)c1 , tested on Protein translocase subunit SecA (Escherichia coli (strain K12)), showed Percent Effect of -3.5

Param item: CCNC(=O)C1CCN(Cc2csc(-c3ccc(C)o3)n2)CC1 ; param system: Protein translocase subunit SecA (Escherichia coli (strain K12)); output Percent Effect: -0.895

Query COCCN1CC[C@]2(CN(C(=O)c3cccs3)C[C@H]2C)C1=O on Protein translocase subunit SecA (Escherichia coli (strain K12)); Percent Effect returned: 0.25

Response field Percent Effect (Protein translocase subunit SecA (Escherichia coli (strain K12))) for item Cc1ccc2oc(C(=O)N3CCC(C(=O)N4CCCC4)CC3)cc2n1 : -3.66

Summary: CC(=O)N1N=C(c2ccccc2)OC1C(=O)NCCC1=CCCCC1 (centres undefined) , Protein translocase subunit SecA (Escherichia coli (strain K12)), Percent Effect = 1.88

# O=C(NCC1CC1)C1CN(C(=O)c2cccs2)CC12CCOCC2 (centres undefined) with Protein translocase subunit SecA (Escherichia coli (strain K12)): Percent Effect is -8.31
